Each entry below carries its reported pIC50.
molecular target: UniProt P52333
Sequence (P52333 whole entry): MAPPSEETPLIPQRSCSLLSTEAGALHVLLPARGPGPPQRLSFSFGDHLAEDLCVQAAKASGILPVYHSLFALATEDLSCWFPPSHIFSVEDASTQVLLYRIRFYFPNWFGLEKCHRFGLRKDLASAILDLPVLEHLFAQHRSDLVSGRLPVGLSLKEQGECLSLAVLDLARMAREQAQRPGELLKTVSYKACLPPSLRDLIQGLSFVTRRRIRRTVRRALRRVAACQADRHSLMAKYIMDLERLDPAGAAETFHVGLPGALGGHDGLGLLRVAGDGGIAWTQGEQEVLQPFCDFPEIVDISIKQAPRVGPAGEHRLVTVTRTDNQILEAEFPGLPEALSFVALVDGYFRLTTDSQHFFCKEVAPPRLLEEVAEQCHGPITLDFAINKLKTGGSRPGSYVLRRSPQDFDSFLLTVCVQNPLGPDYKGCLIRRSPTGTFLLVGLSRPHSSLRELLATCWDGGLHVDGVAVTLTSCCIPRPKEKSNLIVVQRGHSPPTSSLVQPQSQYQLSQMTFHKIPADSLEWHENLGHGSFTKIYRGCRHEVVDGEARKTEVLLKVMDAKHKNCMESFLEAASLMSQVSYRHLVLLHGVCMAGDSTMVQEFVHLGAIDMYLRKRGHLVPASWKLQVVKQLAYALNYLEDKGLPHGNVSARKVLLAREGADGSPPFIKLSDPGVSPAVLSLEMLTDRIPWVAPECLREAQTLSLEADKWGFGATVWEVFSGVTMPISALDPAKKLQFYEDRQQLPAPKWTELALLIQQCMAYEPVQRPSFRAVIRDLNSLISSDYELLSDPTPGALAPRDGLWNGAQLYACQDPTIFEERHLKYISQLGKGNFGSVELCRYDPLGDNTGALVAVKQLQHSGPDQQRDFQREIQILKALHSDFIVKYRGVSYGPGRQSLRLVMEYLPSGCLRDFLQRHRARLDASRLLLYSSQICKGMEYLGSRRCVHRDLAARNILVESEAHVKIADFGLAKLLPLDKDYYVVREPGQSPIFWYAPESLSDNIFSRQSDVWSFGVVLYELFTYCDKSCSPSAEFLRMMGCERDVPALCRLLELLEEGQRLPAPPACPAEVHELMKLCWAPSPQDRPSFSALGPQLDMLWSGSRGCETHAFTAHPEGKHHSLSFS
pIC50: −log10 of the molar value.

Known results for compounds:
INSERT INTO assay_data (compound, parameter, result) VALUES
  ('C=CS(=O)(=O)Nc1cccc(Nc2cc(Oc3cccc(C(F)(F)F)c3)ncn2)c1 [I-10]', 'pIC50', '6.00 to 7.00'),
  ('CN(C)C/C=C/C(=O)Nc1cccc(Nc2cc(Oc3ccc(Oc4ccccc4)cc3)ncn2)n1 [I-82]', 'pIC50', '7.00 to 8.00'),
  ('O=C(/C=C/CN1CCCC1)Nc1cccc(Nc2cc(Nc3ccc(F)c(Cl)c3)ncn2)c1 [I-56]', 'pIC50', '7.00 to 8.00'),
  ('C#Cc1cccc(Nc2cc(Nc3cccc(C#C)c3)ncn2)c1 [I-11]', 'pIC50', '≤ 5.00'),
  ('C=CS(=O)(=O)Nc1cccc(Nc2cc(Nc3ccc(OCc4cccc(F)c4)c(Cl)c3)ncn2)c1 [I-7]', 'pIC50', '6.00 to 7.00'),
  ('O=C(Nc1cccc(Nc2cc(Nc3ccc(F)c(Cl)c3)ncn2)c1)C1(C(F)(F)F)CC1 [I-51]', 'pIC50', '≤ 5.00'),
  ('CN(C)C/C=C/C(=O)N(C)c1cccc(Nc2cc(Nc3ccc(F)c(Cl)c3)ncn2)c1 [I-48]', 'pIC50', '≤ 5.00'),
  ('C=CS(=O)(=O)Nc1cccc(Nc2cc(Nc3cccc(C)c3)ncn2)c1 [I-5]', 'pIC50', '≥ 8.00');

(Q) Query (compound): C=CC(=O)N(C)c1cccc(Nc2cc(Nc3ccc(F)c(Cl)c3)ncn2)c1 [I-53] ; field requested: pIC50
(A) 6.00 to 7.00

---

biological target: ErbB1 (Homo sapiens); experiment: Z'-LYTE biochemical assay, ErbB1 kinase inhibition; settings: @ 1 μM
Sequence (P00533 25-1210): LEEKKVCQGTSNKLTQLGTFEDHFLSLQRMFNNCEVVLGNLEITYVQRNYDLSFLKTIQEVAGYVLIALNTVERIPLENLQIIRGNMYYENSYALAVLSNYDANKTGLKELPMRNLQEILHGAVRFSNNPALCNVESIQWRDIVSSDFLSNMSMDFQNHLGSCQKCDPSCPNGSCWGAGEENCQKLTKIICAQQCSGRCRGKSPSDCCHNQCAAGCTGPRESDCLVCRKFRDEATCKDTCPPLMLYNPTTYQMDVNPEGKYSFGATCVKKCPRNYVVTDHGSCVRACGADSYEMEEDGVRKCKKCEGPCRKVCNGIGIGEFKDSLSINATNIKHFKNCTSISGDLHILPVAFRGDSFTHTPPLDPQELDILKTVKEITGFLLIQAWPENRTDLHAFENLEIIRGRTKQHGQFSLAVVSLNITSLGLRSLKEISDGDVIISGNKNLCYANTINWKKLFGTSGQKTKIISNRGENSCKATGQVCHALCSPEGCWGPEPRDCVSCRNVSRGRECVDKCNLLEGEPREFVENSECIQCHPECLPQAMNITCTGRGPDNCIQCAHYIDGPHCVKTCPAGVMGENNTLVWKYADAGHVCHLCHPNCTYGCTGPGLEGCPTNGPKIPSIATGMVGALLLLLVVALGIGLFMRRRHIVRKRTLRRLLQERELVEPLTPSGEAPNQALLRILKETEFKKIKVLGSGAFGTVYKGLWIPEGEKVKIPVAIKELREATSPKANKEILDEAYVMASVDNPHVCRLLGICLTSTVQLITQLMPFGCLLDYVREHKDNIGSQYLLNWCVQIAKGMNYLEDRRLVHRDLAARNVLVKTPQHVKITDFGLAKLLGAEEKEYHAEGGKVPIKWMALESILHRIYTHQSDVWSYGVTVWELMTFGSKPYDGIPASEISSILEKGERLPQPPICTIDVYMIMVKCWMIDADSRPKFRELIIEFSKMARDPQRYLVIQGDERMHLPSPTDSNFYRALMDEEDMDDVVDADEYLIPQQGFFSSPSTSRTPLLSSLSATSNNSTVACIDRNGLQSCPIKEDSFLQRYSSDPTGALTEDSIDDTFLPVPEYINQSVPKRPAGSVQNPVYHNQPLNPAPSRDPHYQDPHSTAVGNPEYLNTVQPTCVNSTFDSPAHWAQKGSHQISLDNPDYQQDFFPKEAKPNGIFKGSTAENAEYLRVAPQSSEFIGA
parameter: inhibition at 1 µM (%)
A number alone suffices; assume %.

INSERT INTO assay_data (smiles_structure, numeric_readout) VALUES
  ('C#Cc1cccc(Nc2cc(Nc3cccc(Br)c3)ncn2)c1', 82),
  ('C=CS(=O)(=O)Nc1cccc(Nc2cc(Oc3cccc(C(F)(F)F)c3)ncn2)c1', 96),
  ('CN(C)C/C=C/C(=O)Nc1cccc(Nc2cc(Nc3ccc(OCc4ccccn4)c(Cl)c3)ncn2)c1', 96);

(Q) Query (compound): C=CC(=O)Nc1cccc(Nc2cc(N3CCc4ccccc43)ncn2)c1 ; field requested: inhibition at 1 µM
(A) 96

(Q) Here is the next compound: C=CC(=O)Nc1cccc(Nc2cc(Nc3ccc(Oc4ccccc4)cc3)ncn2)c1
(A) 92

---

Each entry below carries its reported pIC50.
biological target: EGFR (T790M/L858R) (Homo sapiens, UniProt P00533, L858R/T790M); experiment: Omnia continuous-read kinase assay, EGFR (T790M/L858R); settings: read-out: EGFR (T790M/L858R) inhibiton
Sequence (P00533 25-1210 T790M/L858R): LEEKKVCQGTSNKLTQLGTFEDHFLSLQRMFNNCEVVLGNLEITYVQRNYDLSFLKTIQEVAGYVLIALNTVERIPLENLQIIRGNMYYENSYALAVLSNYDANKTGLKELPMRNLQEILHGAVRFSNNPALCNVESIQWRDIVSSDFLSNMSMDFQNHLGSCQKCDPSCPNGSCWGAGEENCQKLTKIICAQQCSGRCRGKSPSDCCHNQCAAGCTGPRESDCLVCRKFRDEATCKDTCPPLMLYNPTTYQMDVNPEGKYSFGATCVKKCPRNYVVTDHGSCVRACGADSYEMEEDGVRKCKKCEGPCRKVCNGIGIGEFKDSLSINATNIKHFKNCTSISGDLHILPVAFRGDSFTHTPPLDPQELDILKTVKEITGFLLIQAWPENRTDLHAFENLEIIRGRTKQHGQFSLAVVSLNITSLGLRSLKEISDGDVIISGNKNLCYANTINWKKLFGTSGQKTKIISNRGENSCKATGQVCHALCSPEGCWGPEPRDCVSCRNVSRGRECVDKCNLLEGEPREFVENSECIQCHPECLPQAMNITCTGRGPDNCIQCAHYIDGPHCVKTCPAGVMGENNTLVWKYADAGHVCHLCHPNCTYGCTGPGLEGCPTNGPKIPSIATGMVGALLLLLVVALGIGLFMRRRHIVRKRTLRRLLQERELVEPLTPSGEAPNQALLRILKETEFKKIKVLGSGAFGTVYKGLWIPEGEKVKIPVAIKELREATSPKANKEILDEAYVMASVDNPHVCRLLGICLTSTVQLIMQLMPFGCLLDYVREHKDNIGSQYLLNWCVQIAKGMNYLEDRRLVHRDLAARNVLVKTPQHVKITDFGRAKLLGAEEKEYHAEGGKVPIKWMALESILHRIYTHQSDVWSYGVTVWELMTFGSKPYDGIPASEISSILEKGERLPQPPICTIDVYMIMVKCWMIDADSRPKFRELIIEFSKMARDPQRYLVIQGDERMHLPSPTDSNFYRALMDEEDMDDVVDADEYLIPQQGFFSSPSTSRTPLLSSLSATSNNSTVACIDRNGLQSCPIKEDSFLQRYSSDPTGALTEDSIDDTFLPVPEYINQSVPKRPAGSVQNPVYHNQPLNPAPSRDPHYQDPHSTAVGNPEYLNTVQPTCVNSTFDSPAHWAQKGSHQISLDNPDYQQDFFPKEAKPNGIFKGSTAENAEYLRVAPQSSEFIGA
pIC50: −log10 of the molar value.

Known results for molecules:
INSERT INTO assay_data (molecule, parameter, result) VALUES
  ('CN(C)C/C=C/C(=O)Nc1cccc(Nc2cc(Nc3ccc(OCc4cccc(F)c4)c(Cl)c3)ncn2)c1 [I-46]', 'pIC50', '≥ 8.00'),
  ('CN(C)C/C=C/C(=O)N(C)c1cccc(Nc2cc(Nc3ccc(F)c(Cl)c3)ncn2)c1 [I-48]', 'pIC50', '6.00 to 7.00'),
  ('C=CC(=O)Nc1cccc(Nc2cc(Nc3cccc(C)c3)ncn2)c1 [I-4]', 'pIC50', '7.00 to 8.00'),
  ('CN(C)C/C=C/C(=O)Nc1cccc(Nc2cc(Nc3ccc(OCc4ccccn4)c(Cl)c3)ncn2)c1 [I-19]', 'pIC50', '≥ 8.00'),
  ('C#CCN(C)C/C=C/C(=O)Nc1cccc(Nc2cc(Nc3cccc(C)c3)ncn2)c1 [I-58]', 'pIC50', '6.00 to 7.00');

Here's the next entry for you.
(Q) Query (molecule): C=CC(=O)Nc1cccc(Nc2cc(Nc3ccc(Br)cc3F)ncn2)c1 [I-55] ; field requested: pIC50
(A) ≥ 8.00

These data points were gathered from patent US9296704B2.
